Assay: HCT116 colon cancer cell growth inhibition, primary screen, CellTiter-Glo luminescence, NPC library (AID 1117342)
Conditions: at 20 µM (top of the series)
For each entry below, report its inhibition of viability value.
One number for each entry, in %.

Use the examples below as a reference point.
{"compound": "CCN(Cc1ccc(Cl)nc1)/C(=C/[N+](=O)[O-])NC", "inhibition of viability / %": -3.27}
{"compound": "O=C(O)COc1ccccc1", "inhibition of viability / %": -0.7}

Input CC[N+]1(CC)CCC(OC(=O)C(O)(c2ccccc2)c2ccccc2)C1 (stereo not drawn) . Output inhibition of viability: 4.2

====

Experiment: Cy5 fluorescence interference with SSB-bound oligo, artefact control for HCV NS3 helicase inhibitor project, biochemical, NIH Clinical Collection, E. coli SSB (AID 743268)
quantity.kind: fluorescence ratio
Answers are plain numbers.

Use the examples below as a reference point.
{"compound": "CC12CCC(=O)C=C1CCC1C2CCC2(C)C(O)CCC12 (stereo not drawn)", "quantity.kind": "fluorescence ratio", "result.value": 0.97}
{"compound": "O=C(O)CCCc1ccc(N(CCCl)CCCl)cc1", "quantity.kind": "fluorescence ratio", "result.value": 1.06}
{"compound": "C[C@]12CC[C@H](O)CC1=CC[C@@H]1[C@@H]2CC[C@]2(C)C(=O)CC[C@@H]12", "quantity.kind": "fluorescence ratio", "result.value": 0.94}
{"compound": "CS(=O)(=O)Nc1ccc(Cc2noc(-c3ccc4[nH]cc(CCN)c4c3)n2)cc1", "quantity.kind": "fluorescence ratio", "result.value": 0.59}
{"compound": "CN[C@@H]1C[C@@H](c2ccc(Cl)c(Cl)c2)c2ccccc21", "quantity.kind": "fluorescence ratio", "result.value": 0.98}
{"compound": "C[C@]12CC[C@H]3[C@@H](CCC4=CC(=O)CC[C@@]43C)[C@@H]1CC[C@@H]2O", "quantity.kind": "fluorescence ratio", "result.value": 0.93}
{"compound": "Clc1ccc(COC(Cn2ccnc2)c2ccc(Cl)cc2Cl)cc1 (stereo not drawn)", "quantity.kind": "fluorescence ratio", "result.value": 1.02}

Okay, now this compound:
Input `CCCCC/C=C\C/C=C\C/C=C\C/C=C\CCCC(=O)Nc1ccc(O)cc1` . Output fluorescence ratio: 0.87

====

Tested on: R275C/beta1
Test: modulators of BK channel variants, profiling panel, selectivity assay, cell-based, U2OS BacMam, thallium flux, beta subunits (AID 1259406);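 note: initial slope of Thallos dye fluorescence rise after thallium is added; log ratio against the mean of 0.3% DMSO vehicle wells on the same plate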
Settings: at 30 µM
Activity calls are given as the source filed them.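 The calls were made as follows: active = thallium flux through the channel raised or lowered by more than 3 SD from vehicle-only wells, actives on both sides; inactive = the rest.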
Your response should consist of one outcome taken from active, inactive

For orientation, consider the following solved cases.
{"compound": "COc1ccc2[nH]cc(CCN)c2c1", "tested.on": "R275C/beta1", "label.class": "inactive"}
{"compound": "O=C(O)CCCc1ccc(N(CCCl)CCCl)cc1", "tested.on": "R275C/beta1", "label.class": "inactive"}

Would you kindly look at the next entry?
## Task Give the logged outcome of this assay for the following compound: `CN1CC[C@@]23CCCC[C@@H]2[C@@H]1Cc1ccc(O)cc13`
## Result inactive

====

Assay: HCT116 colon cancer cell growth inhibition, primary screen, CellTiter-Glo luminescence, NPC library (AID 1117342)
Details: at 20 µM (top of the series)
Active and inactive are the calls of the source.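 The calls were made as follows: active = compounds that lower survival of HCT116 colon cancer cells in the luminescence readout, no numeric limit stated; inactive = the rest.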
Your response should consist of one outcome taken from active, inactive

For orientation, consider the following solved cases.
{"compound": "CCc1ccc(C2CCNCC2)cc1", "label.class": "inactive"}
{"compound": "CNC(=O)Oc1cccc2ccccc12", "label.class": "inactive"}
{"compound": "CC1Sc2c(C(=O)O)c(=O)c3cc(F)c(N4CCNCC4)cc3n21 (stereo not given)", "label.class": "active"}
{"compound": "Cc1ncc(CNC(=O)N(CCCl)N=O)c(N)n1", "label.class": "inactive"}

## Task Give the logged outcome of this assay for the following compound: `COc1cccc([C@@]2(O)CCCC[C@@H]2CN(C)C)c1`
## Result inactive

## Task Give the logged outcome of this assay for the following compound: `Oc1ccccc1-c1ccccc1`
## Result inactive

## Task Give the logged outcome of this assay for the following compound: `NNc1ccccc1`
## Result inactive

## Task Give the logged outcome of this assay for the following compound: `O=c1[nH]c2cc(Cl)ccc2n1C1CCNCC1`
## Result inactive

## Task Give the logged outcome of this assay for the following compound: `CC(=O)[C@H]1CC[C@H]2[C@@H]3CC[C@H]4C[C@H](O)CC[C@]4(C)[C@H]3C(=O)C[C@]12C`
## Result inactive

## Task Give the logged outcome of this assay for the following compound: `c1ccc(C2CC2)c(OCC2=NCCN2)c1`
## Result inactive

## Task Give the logged outcome of this assay for the following compound: `CNCC(=O)c1ccc(O)c(O)c1`
## Result inactive

## Task Give the logged outcome of this assay for the following compound: `C=C1CC[C@@]2(O)[C@H]3Cc4ccc(O)c5c4[C@@]2(CCN3CC2CC2)[C@H]1O5`
## Result inactive

## Task Give the logged outcome of this assay for the following compound: `Oc1cccc2cccnc12`
## Result inactive

## Task Give the logged outcome of this assay for the following compound: CCC1(C2=NCCN2)Cc2ccccc2O1 (stereo not given)
## Result inactive

Data origin: PubChem BioAssay
